assay-overview: E. coli Topoisomerase I Relaxation Activity Inhibition Assay: The relaxation activity of E. coli topoisomerase I was assayed in a buffer containing 10 mM Tris-HCl, pH 8.0, 50 mM NaCl, 0.1 mg/mL gelatin, and 0.5 mM MgCl2. Half microliter from the appropriate stock solutions of compounds dissolved in the solvent (DMSO) or the solvent alone (control) was mixed with 9.5 μL of the reaction buffer containing 10 ng of enzyme before the addition of 10 μL of reaction buffer containing 200 ng of supercoiled pBAD/Thio plasmid DNA purified by cesium chloride gradient as substrate. Following incubation at 37° C. for 30 min, the reactions were terminated by the addition of 4 μL of a stop buffer (50% glycerol, 50 mM EDTA, and 0.5% (v/v) bromophenol blue), and analyzed by agarose gel electrophoresis. The gels were stained in ethidium bromide and photographed under UV light.
Each item that follows carries a reported IC50.

Data request: I am curious: what IC50 value has been reported for CCCCCNc1c(F)cc2c(=O)c(C(=O)O)cn3c2c1Oc1cc(N)ccc1-3 ?
Data returned: 15.6 µM

Further cases:
Data request: I am curious: what IC50 value has been reported for Nc1ccc2c(c1)Oc1c(N3CCCCC3)c(F)cc3c(=O)c(C(=O)O)cn-2c13 ?
Data returned: 3.9 µM
